Recorded values, source the kinase profiling compilation of Christmann-Franck et al. (2016).

Target: CDC2L2 (human) (UniProt Q9UQ88)
Sequence (Q9UQ88 whole entry, looked up): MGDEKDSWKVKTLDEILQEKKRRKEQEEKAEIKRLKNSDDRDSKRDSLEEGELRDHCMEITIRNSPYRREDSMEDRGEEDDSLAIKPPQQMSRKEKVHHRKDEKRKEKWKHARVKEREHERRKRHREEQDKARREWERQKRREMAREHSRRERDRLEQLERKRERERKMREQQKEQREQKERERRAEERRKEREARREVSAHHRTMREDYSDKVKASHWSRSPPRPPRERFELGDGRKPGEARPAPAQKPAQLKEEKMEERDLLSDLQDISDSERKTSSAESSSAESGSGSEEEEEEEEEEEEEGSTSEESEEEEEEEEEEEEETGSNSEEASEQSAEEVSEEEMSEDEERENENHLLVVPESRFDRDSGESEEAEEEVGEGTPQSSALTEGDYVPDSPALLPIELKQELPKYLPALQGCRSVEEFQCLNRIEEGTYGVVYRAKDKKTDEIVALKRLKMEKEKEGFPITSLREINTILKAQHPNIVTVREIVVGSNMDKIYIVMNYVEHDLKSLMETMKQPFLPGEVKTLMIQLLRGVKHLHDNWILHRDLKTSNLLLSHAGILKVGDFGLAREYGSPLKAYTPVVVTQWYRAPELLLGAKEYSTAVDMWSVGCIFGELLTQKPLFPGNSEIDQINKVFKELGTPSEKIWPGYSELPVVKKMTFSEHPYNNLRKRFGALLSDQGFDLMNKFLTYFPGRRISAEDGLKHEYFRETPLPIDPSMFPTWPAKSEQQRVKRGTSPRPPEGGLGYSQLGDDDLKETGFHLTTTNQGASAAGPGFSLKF
Assay: KINOMEscan competition binding
Conditions: compound 10.0 µM
Measure: kinase still bound, per cent of control (%)
Answer with a number only, understood to be in %.

I would be grateful if you could share the reported kinase still bound, per cent of control for C=CC(=O)Nc1cccc(Nc2nc(N[C@H]3CC[C@H](N(C)C)CC3)nc3c2ncn3C(C)C)c1 .
98

Would you mind telling me what kinase still bound, per cent of control value was observed for Cc1ccc(C(=O)Nc2cccc(C(F)(F)F)c2)cc1Nc1cncc(C(N)=O)c1 ?
100

Given the entry CCC(=O)N1CCN(c2ccc(-n3c(=O)ccc4cnc5ccc(-c6cnc7ccccc7c6)cc5c43)cc2C(F)(F)F)CC1 , report its measured kinase still bound, per cent of control.
100

Find the recorded kinase still bound, per cent of control belonging to Cc1ccc2nc(NCCN)c3ncc(C)n3c2c1 and report it.
1

Query: kinase still bound, per cent of control; subject: CCCS(=O)(=O)Nc1ccc(F)c(C(=O)c2c[nH]c3ncc(-c4ccc(Cl)cc4)cc23)c1F
91

====

Target: PIP5K1A (human)
Test: KINOMEscan competition binding
Details: compound 10.0 µM
Measure: kinase still bound, per cent of control
Your reply should be a number followed by the unit it is expressed in.

What value of kinase still bound, per cent of control has been reported for the following molecule? O=C(O)c1ccc(Nc2ncc3c(n2)-c2ccc(Cl)cc2C(c2c(F)cccc2F)=NC3)cc1
100%

kinase still bound, per cent of control lookup needed for COc1cc(C(=O)NC2CCN(C)CC2)ccc1Nc1ncc2c(n1)N(C1CCCC1)C(C)CC(=O)N2C (stereo not given) , thanks.
100%

Reported kinase still bound, per cent of control for Cc1ccc(C(=O)Nc2cccc(C(F)(F)F)c2)cc1Nc1cncc(C(N)=O)c1 : what is it?
100%

Recorded kinase still bound, per cent of control of O=C(NC1CC1)c1cccc(-c2ccc3c(NC(=O)C4CC4)n[nH]c3c2)c1 , please.
28%

Item COc1cc(N2CCN(C)CC2)ccc1Nc1nc(N)c(C(=O)c2c(Cl)cccc2Cl)s1 has what recorded kinase still bound, per cent of control?
88%

Which kinase still bound, per cent of control value is on record for Cc1ccc(NC(=O)c2cccc(C(C)(C)C#N)c2)cc1Nc1ccc2ncn(C)c(=O)c2c1 ?
100%

# query: kinase still bound, per cent of control of entry C[C@@H](Oc1cc(-n2cnc3ccc(CN4CCN(C)CC4)cc32)sc1C(N)=O)c1ccccc1C(F)(F)F
14%

Return reported kinase still bound, per cent of control; argument: Cn1c(=O)n(-c2ccc(C(C)(C)C#N)cc2)c2c3cc(-c4cnc5ccccc5c4)ccc3ncc21
100%

Endpoint output: kinase still bound, per cent of control of CCC(=O)N1CCN(c2ccc(-n3c(=O)ccc4cnc5ccc(-c6cnc7ccccc7c6)cc5c43)cc2C(F)(F)F)CC1 . Value?
89%

Recorded kinase still bound, per cent of control of Cc1cc([C@@H](C)Nc2ccccc2C(=O)O)c2nc(N3CCOCC3)cc(=O)n2c1 , please.
100%

Which kinase still bound, per cent of control is listed for CCOc1cc2ncc(C#N)c(Nc3ccc(OCc4ccccn4)c(Cl)c3)c2cc1NC(=O)/C=C/CN(C)C ?
100%

Query: kinase still bound, per cent of control; subject: CCCS(=O)(=O)Nc1ccc(F)c(C(=O)c2c[nH]c3ncc(-c4ccc(Cl)cc4)cc23)c1F
100%

GET /values?readout=kinase still bound, per cent of control&item= Cc1ccc2nc(NCCN)c3ncc(C)n3c2c1
92%

Reported kinase still bound, per cent of control, molecule C=CC(=O)Nc1cccc(Nc2nc(N[C@H]3CC[C@H](N(C)C)CC3)nc3c2ncn3C(C)C)c1 : ____
36%

Form field: reported kinase still bound, per cent of control of C=CC(=O)Nc1cc(NC(=O)c2ccc(C)c(NC(=O)c3ccno3)c2)cc(C(F)(F)F)c1
100%

Could you share which kinase still bound, per cent of control value was measured for COc1cc(C(=O)NC2CCN(C)CC2)ccc1Nc1ncc2c(n1)N(C1CCCC1)CCC(=O)N2C(C)C ?
6.4%

I would be grateful if you could share the reported kinase still bound, per cent of control for CC[C@@H]1C(=O)N(C)c2cnc(Nc3ccc(C(=O)NC4CCN(C)CC4)cc3OC)nc2N1C1CCCC1 .
100%

Fill in the blank: the reported kinase still bound, per cent of control of O=C1Nc2ccc(I)cc2/C1=C/c1cc(Br)c(O)c(Br)c1 is ____.
19%

Query (molecule): OCCCNc1cc(-c2ccnc(Nc3cccc(Cl)c3)n2)ccn1 ; field requested: kinase still bound, per cent of control
100%

What value of kinase still bound, per cent of control has been reported for the following molecule? O=C(NOC[C@H](O)CO)c1ccc(F)c(F)c1Nc1ccc(I)cc1F
91%

What does the record list as kinase still bound, per cent of control for CN(C)C/C=C/C(=O)Nc1cccc(Nc2ncc3c(n2)N(C)c2ccccc2C(=O)N3C)c1 ?
9.9%

Which kinase still bound, per cent of control reading was recorded for the molecule N#Cc1c(NC(=O)c2cccc3ccccc23)sc2c1CCCC2 ?
100%

Would you kindly share the measured kinase still bound, per cent of control for C=CC(=O)Nc1cccc(Oc2nc(Nc3ccc(N4CCN(C)CC4)cc3OC)ncc2Cl)c1 ?
11%

Look at this molecule and give its reported kinase still bound, per cent of control. CCN1CCN(Cc2ccc(Nc3ncc4c(n3)N(C)c3ccccc3C(=O)N4C)cc2C(F)(F)F)CC1
5%

Looking for the measured kinase still bound, per cent of control of Nc1ccc(-c2ccc3ncc4ccc(=O)n(-c5cccc(C(F)(F)F)c5)c4c3c2)cn1 , can you help?
78%
